# method-description: viability loss in pontine glioma line – cell-based, SU-DIPG-XVII, MIPE5.0, CellTiter-Glo, qHTS, dose response (AID 1347060);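 for AC50: cells exposed to compound for 48 hours before viability readout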
# settings: CellTiter-Glo ATP luminescence
Inconclusive results are not listed. Calls of active or inactive are those of the source. No cut-off is given here; in the data, nearly all actives have AC50 up to about 26 µM.
Log the outcome using a class from YES (active), NO (inactive)

-- ask Write down the call the test reported for this molecule. Item: `CC(C)n1cc(-c2ccc3c(c2)N(C)CC3)c2c(NS(=O)(=O)c3ccn(C)n3)ccnc21`
-- reply NO

-- ask Write down the call the test reported for this molecule. Item: `CC[C@H](CC[C@@H](C)[C@H]1CC[C@H]2[C@@H]3CC=C4C[C@@H](O)CC[C@]4(C)[C@H]3CC[C@]12C)C(C)C`
-- reply NO

-- ask Write down the call the test reported for this molecule. Item: `COc1cc(OC)cc(N(CCNC(C)C)c2ccc3ncc(-c4cnn(C)c4)nc3c2)c1`
-- reply YES

###

# System: Aerobactin synthetase IucA (Klebsiella pneumoniae)
# method-description: inhibition of K. pneumoniae IucA enzyme – biochemical, Tocris library, absorbance (AID 1345561);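 note: 100% = enzyme without compound and 0% = no enzyme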
# settings: purified IucA enzyme assay, absorbance (OD) read-out; stronger effect = lower value; concentration not given here
Quick reference: remaining activity of the listed items.
Hi! Could you send only the number? It should be in %, unit omitted.

Worked examples follow.
| record-smiles | remaining activity (%) |
| --- | --- |
| Cc1nc2c(c(=O)[nH]1)CSCC2 | 100 |
| CCCn1c(=O)c2[nH]c(-c3ccccc3)nc2n(CCC)c1=O | 113 |
| CC(C)C[C@H](NC(=O)N1CCCCCC1)C(=O)N[C@H](Cc1cn(C)c2ccccc12)C(=O)N[C@H](Cc1ccccn1)C(=O)O | 87.9 |
| CN(CC[C@@H](Oc1ccc(-c2ccccc2)cc1)c1ccc(F)cc1)CC(=O)O | 116 |

-- ask Any idea what remaining activity was measured for `CN(C)[C@@H]1CCc2[nH]c3ccc(NC(=O)c4ccc(F)cc4)cc3c2C1` ?
-- reply 77.6

###

# method-description: drug combination growth inhibition, ovarian cancer – cell-based, oncology-focused library, rucaparib conditional, profiling panel (AID 1508598)
# settings: patient-derived ovarian cancer cells, CellTiter-Glo viability, 144 h; at 1.25 µM; OCI-C5x cells; without rucaparib
Active and inactive are the calls of the source.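 The calls were made as follows: active = normalized viability below 100% at a tested concentration; inactive = the rest.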
Log the outcome using a class from Yes for active, No for inactive

| compound | class-label |
| --- | --- |
| CC(C)c1cc(-c2n[nH]c(=O)n2-c2ccc3c(ccn3C)c2)c(O)cc1O | Yes |
| CCN1CCN(Cc2ccc(-c3cc4c(N[C@H](C)c5ccccc5)ncnc4[nH]3)cc2)CC1 | No |
| CC(C)[C@H](C(=O)Nc1ccc(C(=O)NO)cc1)c1ccccc1 | Yes |
| CCc1cc(Nc2nccc(-c3c(-c4ccc(OC)c(C(=O)Nc5c(F)cccc5F)c4)nc4ccccn34)n2)c(OC)cc1N1CCC(N2CCN(S(C)(=O)=O)CC2)CC1 | No |
| Cc1ccc(NC(=O)c2cccc(C(C)(C)C#N)c2)cc1Nc1ccc2ncn(C)c(=O)c2c1 | No |

-- ask Write down the call the test reported for this compound. Item: `CCn1c(-c2nonc2N)nc2c(C#CC(C)(C)O)ncc(OC[C@H]3CCCNC3)c21`
-- reply No

-- ask Write down the call the test reported for this compound. Item: `CS(=O)(=O)c1cccc(CNc2nc(Nc3ccc4c(c3)CCC(=O)N4)ncc2C(F)(F)F)c1`
-- reply No

-- ask Write down the call the test reported for this compound. Item: `C=CC(=O)N1CCC[C@@H](n2nc(-c3ccc(Oc4ccccc4)cc3)c3c(N)ncnc32)C1`
-- reply No

-- ask Write down the call the test reported for this compound. Item: `COC(=O)c1ccc2c(C(=Nc3ccc(N(C)C(=O)CN4CCN(C)CC4)cc3)c3ccccc3)c(O)[nH]c2c1`
-- reply No

-- ask Write down the call the test reported for this compound. Item: COc1ccc2cc(-c3nc(-c4ccc(S(C)=O)cc4)[nH]c3-c3ccncc3)ccc2c1 (centres undefined)
-- reply No

-- ask Write down the call the test reported for this compound. Item: `O=C(CCCCCCC(=O)Nc1ccc([C@H]2O[C@@H](CSc3nc(-c4ccccc4)c(-c4ccccc4)o3)C[C@@H](c3ccc(CO)cc3)O2)cc1)NO`
-- reply No

-- ask Write down the call the test reported for this compound. Item: `Cc1cc(Nc2nc(N[C@@H](C)c3ncc(F)cn3)ncc2Cl)n[nH]1`
-- reply No

-- ask Write down the call the test reported for this compound. Item: `Cc1ccc([C@@H]2O[C@H](CO)[C@@H](O)[C@H](O)[C@H]2O)cc1Cc1ccc(-c2ccc(F)cc2)s1`
-- reply No

-- ask Write down the call the test reported for this compound. Item: `CCN(CCO)CCCOc1ccc2c(Nc3cc(CC(=O)Nc4cccc(F)c4)[nH]n3)ncnc2c1`
-- reply Yes

###

Quick reference: fold change of the listed items.
# method-description: viability loss with induced miR-34 in A549 – imaging, A549 dox-inducible miR-34, nuclei and caspase counts, primary screen (AID 1347080)
# settings: A549 miR-34 inducible, Hoechst nuclei count, 48 h; stronger effect = lower value; cell number ratio, induced over uninduced
Reply with just the number.

Worked examples follow.
| molecule | fold change |
| --- | --- |
| CCCCCC(=O)CC[C@H]1[C@H](O)CC(=O)[C@@H]1C/C=C\CCCC(=O)O | 0.975 |
| CCCC/C=C\CCCCCCCC(=O)OC | 1.02 |
| CS(=O)(=O)Nc1c(O)ccc2c1CCCC2C1=NCCN1 (centres undefined) | 1 |

-- ask Any idea what fold change was measured for `N=C(N)c1ccc(N2CCN(C3CCN(CC(=O)O)CC3)CC2)cc1` ?
-- reply 1

###

# method-description: drug combination growth inhibition, ovarian cancer – cell-based, oncology-focused library, rucaparib conditional, profiling panel (AID 1508598)
# settings: patient-derived ovarian cancer cells, CellTiter-Glo viability, 144 h; at 0.0195 µM; OCI-C5x cells; with rucaparib 10 µM; stronger effect = lower value; 100% = cells with rucaparib alone
property-measured: viability (%)
Hi! Could you send only the number? It should be in %, unit omitted.

Worked examples follow.
| record-smiles | viability, % |
| --- | --- |
| CCC[C@H](Nc1nc(-c2ccc(NC(=O)NCC)c(OC)c2)ncc1C)c1cccnc1 | 98.1 |
| CCC(CC)CC1(C(=O)Nc2ccccc2SC(=O)C(C)C)CCCCC1 | 127 |
| Nc1ccn([C@@H]2O[C@H](CO)[C@@H](O)C2(F)F)c(=O)n1 | 69.2 |
| CNC(=O)c1cc(Oc2ccc(NC(=O)Nc3ccc(Cl)c(C(F)(F)F)c3)c(F)c2)ccn1 | 114 |
| Cc1ccc(C(=O)N(CCCN)[C@@H](c2oc3cc(Cl)ccc3c(=O)c2Cc2ccccc2)C(C)C)cc1 | 57.6 |

-- ask Any idea what viability was measured for `NC(=O)Nc1cc(-c2cccc(F)c2)sc1C(=O)N[C@H]1CCCNC1` ?
-- reply 108

-- ask Any idea what viability was measured for `COc1ccc(S(=O)(=O)Nc2cccnc2Nc2ccc(O)cc2)cc1` ?
-- reply 113

-- ask Any idea what viability was measured for `Cc1cccc(-c2nn3c(c2-c2ccnc4ccc(C(N)=O)cc24)CCC3)n1` ?
-- reply 113

-- ask Any idea what viability was measured for `Nc1ccccc1NC(=O)c1ccc(CNc2nccc(-c3cccnc3)n2)cc1` ?
-- reply 119

-- ask Any idea what viability was measured for `Cn1cc(CNCC2CCN(c3ncc(C(=O)NO)cn3)CC2)c2ccccc21` ?
-- reply 96.2

-- ask Any idea what viability was measured for `CCN(CC)CCCCNc1ncc2cc(-c3cc(OC)cc(OC)c3)c(NC(=O)NC(C)(C)C)nc2n1` ?
-- reply 118

-- ask Any idea what viability was measured for `Cn1cc(-c2ccc3nnc(Sc4ccc5ncccc5c4)n3n2)cn1` ?
-- reply 126

-- ask Any idea what viability was measured for `O=C(O)c1ccc(O)c2ncccc12` ?
-- reply 127

-- ask Any idea what viability was measured for `Cc1cnc(Nc2ccc(OCCN3CCCC3)cc2)nc1Nc1cccc(S(=O)(=O)NC(C)(C)C)c1` ?
-- reply 107

###

# method-description: viability loss in pontine glioma line – cell-based, SU-DIPG-XXV, MIPE5.0, CellTiter-Glo, qHTS, dose response (AID 1347065);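 note: cells exposed to compound for 48 hours before ATP readout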
# settings: CellTiter-Glo ATP luminescence
Records with an inconclusive call do not appear. Activity calls are given as the source filed them. Cut-off not given; nearly all actives show AC50 up to about 26 µM.
property-measured: AC50

Worked examples follow.
| compound | result-value |
| --- | --- |
| Cn1cc(-c2cc(Oc3cc(F)c(NC(=O)C4(C(=O)Nc5ccccc5)CC4)cc3F)ccn2)cn1 | 16.6 µM (active) |
| Cc1cc(N2CCOCC2)ccc1Nc1nc(NC2CCCCC2)c2[nH]cnc2n1 | 7.42 µM (active) |
| Cc1nn(Cc2ccccc2Cl)c(C)c1CN(C)CC(O)COc1ccc(Cl)cc1 (stereo not drawn) | 20.9 µM (active) |
| CC[C@]12C=CCN3CC[C@@]4(c5cc([C@@]6(C(=O)OC)CC7C[C@@H](C(C)(F)F)CN(Cc8c6[nH]c6ccccc86)C7)c(OC)cc5N(C)[C@H]4[C@@](O)(C(=O)OC)[C@@H]1OC(C)=O)[C@@H]32 (stereo partly drawn) | 0.132 µM (active) |
| COc1cccc(-c2cc(F)ccc2C2Cc3nc(N)nc(C)c3C(=O)N2)n1 (stereo not drawn) | 0.0295 µM (active) |

-- ask Any idea what AC50 was measured for `Cc1csc(-c2nnc(Nc3ccc(Oc4ncccc4-c4ccnc(N)n4)cc3)c3ccccc23)c1` ?
-- reply 0.00417 µM (active)

-- ask Any idea what AC50 was measured for `Clc1cccc(-n2nnnc2NCc2ccccc2Oc2ccccn2)c1Cl` ?
-- reply inactive
